Tested on: Human immunodeficiency virus 1
Assay: Antiviral activity against drug-resistant HIV1 A17 expressing K103N/Y181C mutant infected in human MT2 cells assessed as inhibition of viral replication
Settings: Human immunodeficiency virus 1, A17, MT2
Cut-off 30 nM on EC50: below means Criterion met, at or above means Criterion not met.

# Smiles Entry, Category
data = [
    ("CC(=O)OCc1cc(N)c(Nc2ccc(C#N)cc2)cc1Oc1c(C)cc(C#N)cc1C", "Criterion not met"),
]

In: Say whether its EC50 is strictly beneath 30 nM. Entry: CC(=O)OCc1cc(N)c(Nc2ccc(C#N)cc2)cc1Oc1c(C)cc(CCC#N)cc1C
Out: Criterion met

In: Say whether its EC50 is strictly beneath 30 nM. Entry: COCc1cc(N)c(Nc2ccc(C#N)cc2)cc1Oc1c(C)cc(CCC#N)cc1C
Out: Criterion met

In: Say whether its EC50 is strictly beneath 30 nM. Entry: COCc1cc(N)c(Nc2ccc(C#N)cc2)cc1Oc1c(C)cc(C#N)cc1C
Out: Criterion not met

In: Say whether its EC50 is strictly beneath 30 nM. Entry: COCc1cc(N)c(Nc2ccc(C#N)cc2)cc1Oc1c(C)cc(/C=C/C#N)cc1C
Out: Criterion met

In: Say whether its EC50 is strictly beneath 30 nM. Entry: Cc1cc(C#N)cc(C)c1Oc1cc(Nc2ccc(C#N)cc2)c(N)cc1CNC1CC1
Out: Criterion not met

In: Say whether its EC50 is strictly beneath 30 nM. Entry: Cc1cc(C#N)cc(C)c1Oc1cc(Nc2ccc(C#N)cc2)c(N)cc1CNCCCO
Out: Criterion not met

---

Entries and their log10(CC50)
Test system: MT2
Assay: Cytotoxicity against human MT2 cells assessed as cell viability
Assay type: cell-based
Annotation: log10 of CC50, µM basis.

Example entries begin here.
# Smiles Entry, Measured Value
measured = [
    ("CC(=O)OCc1cc(N)c(Nc2ccc(C#N)cc2)cc1Oc1c(C)cc(CCC#N)cc1C", 1.65),
    ("COCc1cc(N)c(Nc2ccc(C#N)cc2)cc1Oc1c(C)cc(C#N)cc1C", 2.16),
    ("Cc1cc(C#N)cc(C)c1Oc1cc(Nc2ccc(C#N)cc2)c(N)cc1CNC1CC1", 1.08),
    ("CC(=O)OCc1cc(N)c(Nc2ccc(C#N)cc2)cc1Oc1c(C)cc(C#N)cc1C", 2.05),
]

Now consider a different compound.
In: // lookup log10(CC50) for Cc1cc(/C=C/C#N)cc(C)c1Nc1ccnc(Nc2ccc(C#N)cc2)n1
Out: 1.96

---

Test: Selectivity index, ratio of CC50 for human MT2 cells to EC50 for wild type HIV1 3B
Type: toxicity, cell-based
Conditions: read-out: Selectivity Index
Measurement Label: selectivity ratio
Enter a number only.

Example entries begin here.
# Smiles Entry, selectivity ratio
measured = [
    ("Cc1cc(C#N)cc(C)c1Oc1cc(Nc2ccc(C#N)cc2)c(N)cc1CN1CCN(C)CC1", 570),
    ("CC(=O)OCc1cc(N)c(Nc2ccc(C#N)cc2)cc1Oc1c(C)cc(C#N)cc1C", 107000),
    ("Cc1cc(C#N)cc(C)c1Oc1cc(Nc2ccc(C#N)cc2)c(N)cc1CNCCCO", 2480),
    ("CC(=O)OCc1cc(N)c(Nc2ccc(C#N)cc2)cc1Oc1c(C)cc(/C=C/C#N)cc1C", 117000),
    ("CC(=O)OCc1cc(N)c(Nc2ccc(C#N)cc2)cc1Oc1c(C)cc(CCC#N)cc1C", 46700),
]

In: // lookup selectivity ratio for Cc1cc(C#N)cc(C)c1Oc1cc(Nc2ccc(C#N)cc2)c(N)cc1CO
Out: 114000

In: // lookup selectivity ratio for COCc1cc(N)c(Nc2ccc(C#N)cc2)cc1Oc1c(C)cc(C#N)cc1C
Out: 41200
